Quantity kind: IC50 (nM)
All answers are understood in nM, so give the number only.

Exam item: System AT2 receptor (Homo sapiens (Human), UniProt P50052). Read-out IC50. Item COc1ccc2c(c1OCc1ccccc1)CC(C(=O)O[C@@H]1O[C@H](C(=O)O)[C@@H](O)[C@H](O)[C@H]1O)N(C(=O)C(c1ccccc1)c1ccccc1)C2 (stereo partly shown) . Report value.
Marked response: 431
